# assay_system: SMARCA4-HiBiT HeLa cells (protein which is expressed from the SMARCA4 gene) (Homo sapiens)
# Construct: protein which is expressed from the SMARCA2 and SMARCA4 genes; host or cells: HeLa (SMARCA4-HiBiT engineered line)
# Sequence (P51532 whole entry): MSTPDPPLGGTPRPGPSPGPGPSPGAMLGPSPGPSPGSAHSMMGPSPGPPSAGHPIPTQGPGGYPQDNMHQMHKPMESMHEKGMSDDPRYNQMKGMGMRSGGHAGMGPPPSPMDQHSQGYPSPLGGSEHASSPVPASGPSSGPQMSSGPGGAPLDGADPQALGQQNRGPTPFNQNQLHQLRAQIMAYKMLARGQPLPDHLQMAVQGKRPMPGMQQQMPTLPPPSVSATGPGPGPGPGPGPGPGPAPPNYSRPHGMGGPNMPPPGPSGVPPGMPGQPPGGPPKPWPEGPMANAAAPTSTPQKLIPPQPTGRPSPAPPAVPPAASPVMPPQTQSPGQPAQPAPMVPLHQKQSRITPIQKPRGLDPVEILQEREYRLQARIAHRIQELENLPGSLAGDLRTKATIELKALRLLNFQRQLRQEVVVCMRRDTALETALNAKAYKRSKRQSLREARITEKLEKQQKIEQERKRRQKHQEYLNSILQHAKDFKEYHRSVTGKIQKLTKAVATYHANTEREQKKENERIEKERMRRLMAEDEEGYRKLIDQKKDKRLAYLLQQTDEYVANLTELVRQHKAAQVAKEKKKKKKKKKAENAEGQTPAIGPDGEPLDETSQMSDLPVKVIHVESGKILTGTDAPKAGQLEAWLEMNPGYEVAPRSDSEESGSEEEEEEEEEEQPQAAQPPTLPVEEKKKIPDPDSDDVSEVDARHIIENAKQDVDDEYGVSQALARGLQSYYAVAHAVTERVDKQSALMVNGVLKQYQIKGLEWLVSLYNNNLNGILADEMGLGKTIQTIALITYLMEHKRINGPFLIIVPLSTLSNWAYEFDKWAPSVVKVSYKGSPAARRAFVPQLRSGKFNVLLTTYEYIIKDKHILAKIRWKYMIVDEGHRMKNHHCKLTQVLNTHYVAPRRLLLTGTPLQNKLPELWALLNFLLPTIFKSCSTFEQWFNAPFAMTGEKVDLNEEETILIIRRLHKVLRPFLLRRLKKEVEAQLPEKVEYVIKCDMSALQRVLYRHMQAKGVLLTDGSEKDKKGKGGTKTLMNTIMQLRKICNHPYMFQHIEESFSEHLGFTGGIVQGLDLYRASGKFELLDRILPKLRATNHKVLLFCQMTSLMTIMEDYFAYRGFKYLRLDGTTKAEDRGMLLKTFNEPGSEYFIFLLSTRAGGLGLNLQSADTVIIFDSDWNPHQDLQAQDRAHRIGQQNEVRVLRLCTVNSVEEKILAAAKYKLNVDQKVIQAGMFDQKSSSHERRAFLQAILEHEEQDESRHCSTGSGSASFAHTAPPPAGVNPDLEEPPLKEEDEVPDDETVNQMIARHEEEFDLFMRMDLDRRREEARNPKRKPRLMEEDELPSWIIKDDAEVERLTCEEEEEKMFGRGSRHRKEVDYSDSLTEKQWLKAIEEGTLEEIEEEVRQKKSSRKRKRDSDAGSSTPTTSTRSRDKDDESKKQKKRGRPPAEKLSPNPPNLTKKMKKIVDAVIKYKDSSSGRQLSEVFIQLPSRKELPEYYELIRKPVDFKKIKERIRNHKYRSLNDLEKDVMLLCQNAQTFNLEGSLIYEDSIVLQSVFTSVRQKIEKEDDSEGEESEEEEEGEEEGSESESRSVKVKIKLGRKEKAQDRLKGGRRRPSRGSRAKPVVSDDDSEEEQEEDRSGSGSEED
# protocol_description: SMARCA4 degradation assay (HiBiT-fusion HeLa cell line, 24 h, luminescence)
# Format: cell-based
# Excerpt: SMARCA2 and SMARCA4 Degradation Assay Degradation of protein which is expressed from the SMARCA2 and SMARCA4 genes was monitored using engineered HiBiT-fusion HeLa cell lines from Promega. […] 24-hours post-treatment, protein levels were quantified with the addition of HiBiT lytic buffer, LgBiT protein, and HiBiT substrate, according to manufacturer's specifications. […]
Property: DC50; scope: individual molecules

Examples with answers:
sample_smiles | observed_property | observed_measurement
CNCC#Cc1nccc(N2CCN(c3cc(-c4ccccc4O)nnc3N)CC[C@H]2C)n1 | DC50 | < 50 nM
C[C@@H]1CCN(c2cc(-c3ccccc3O)nnc2N)CCN1c1ccnc(C#CC2CC2)c1 | DC50 | 50 to 500 nM
C[C@@H]1CCN(c2cc(-c3ccccc3O)nnc2N)CCN1c1ccnc(C#CCN2CC[C@H]2CF)n1 | DC50 | < 50 nM

Notebook entry, SMARCA4-HiBiT HeLa cells (protein which is expressed from the SMARCA4 gene) (Homo sapiens) assay: DC50 of Nc1nnc(-c2ccccc2O)cc1N1CCCN(c2ccnc(C#CCn3ccn4nccc4c3=O)n2)CC1 = ?
50 to 500 nM

====

# assay_system: SMARCA2-HiBiT HeLa cells (protein which is expressed from the SMARCA2 gene) (Homo sapiens, UniProt P51531)
# Construct: protein which is expressed from the SMARCA2 and SMARCA4 genes; host or cells: HeLa (SMARCA2-HiBiT engineered line)
# Sequence (P51531 whole entry): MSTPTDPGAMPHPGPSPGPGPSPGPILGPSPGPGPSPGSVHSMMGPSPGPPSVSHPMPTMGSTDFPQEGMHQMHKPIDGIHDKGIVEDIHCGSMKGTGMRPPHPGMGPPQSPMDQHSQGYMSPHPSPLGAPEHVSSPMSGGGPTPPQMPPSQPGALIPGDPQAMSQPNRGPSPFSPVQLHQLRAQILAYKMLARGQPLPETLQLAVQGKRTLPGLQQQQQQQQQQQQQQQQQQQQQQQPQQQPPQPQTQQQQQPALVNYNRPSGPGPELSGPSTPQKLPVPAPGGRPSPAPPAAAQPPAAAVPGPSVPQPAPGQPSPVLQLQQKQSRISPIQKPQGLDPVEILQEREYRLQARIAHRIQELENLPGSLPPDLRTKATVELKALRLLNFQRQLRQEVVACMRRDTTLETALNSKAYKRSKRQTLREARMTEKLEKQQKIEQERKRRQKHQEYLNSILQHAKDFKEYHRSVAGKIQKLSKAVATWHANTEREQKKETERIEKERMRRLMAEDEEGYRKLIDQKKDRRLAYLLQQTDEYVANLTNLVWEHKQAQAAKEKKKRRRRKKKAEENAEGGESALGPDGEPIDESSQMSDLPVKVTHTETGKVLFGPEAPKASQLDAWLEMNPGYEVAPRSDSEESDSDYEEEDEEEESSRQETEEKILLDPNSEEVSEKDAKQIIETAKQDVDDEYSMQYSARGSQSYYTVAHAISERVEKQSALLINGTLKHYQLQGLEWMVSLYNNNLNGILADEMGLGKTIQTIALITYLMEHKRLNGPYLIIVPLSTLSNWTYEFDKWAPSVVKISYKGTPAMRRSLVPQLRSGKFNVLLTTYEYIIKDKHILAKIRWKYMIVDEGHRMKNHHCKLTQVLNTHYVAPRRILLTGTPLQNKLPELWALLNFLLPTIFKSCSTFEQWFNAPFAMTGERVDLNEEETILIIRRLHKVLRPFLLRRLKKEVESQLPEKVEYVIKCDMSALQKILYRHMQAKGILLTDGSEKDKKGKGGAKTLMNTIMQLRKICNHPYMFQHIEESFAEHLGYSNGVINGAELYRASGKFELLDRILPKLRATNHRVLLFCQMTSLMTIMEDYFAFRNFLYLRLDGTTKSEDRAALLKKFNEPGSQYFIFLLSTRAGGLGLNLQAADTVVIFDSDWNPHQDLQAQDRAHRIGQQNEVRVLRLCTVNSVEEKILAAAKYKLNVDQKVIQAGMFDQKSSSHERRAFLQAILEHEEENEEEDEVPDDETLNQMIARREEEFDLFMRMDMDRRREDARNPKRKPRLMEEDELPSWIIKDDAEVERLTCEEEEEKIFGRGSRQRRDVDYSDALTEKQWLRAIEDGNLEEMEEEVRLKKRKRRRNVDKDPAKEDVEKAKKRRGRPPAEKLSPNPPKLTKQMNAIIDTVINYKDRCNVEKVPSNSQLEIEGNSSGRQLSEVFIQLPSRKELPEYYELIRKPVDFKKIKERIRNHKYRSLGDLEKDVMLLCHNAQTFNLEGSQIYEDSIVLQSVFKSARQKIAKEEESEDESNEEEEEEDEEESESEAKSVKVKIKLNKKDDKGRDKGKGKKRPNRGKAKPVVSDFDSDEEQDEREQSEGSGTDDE
# protocol_description: SMARCA2 degradation assay (HiBiT-fusion HeLa cell line, 24 h, luminescence)
# Type: cell-based
observed_property: DC50

// known answers, use as guide
molecule | observed_measurement
Nc1nnc(-c2ccccc2O)cc1N1CCCN(c2ccnc(C#CCN3CCN(C(=O)C4CC4)CC3)n2)CC1 | 500 to 5000 nM
Nc1nnc(-c2ccccc2O)cc1N1CC2CCC(C1)N2c1ccnc(C#CCN2CCCCC2)n1 | 50 to 500 nM
Nc1nnc(-c2ccccc2O)cc1N1CCCN(c2ccnc(C#CCNc3nc4ccccc4o3)n2)CC1 | 50 to 500 nM

GET /values?readout=DC50&item= CC1(F)CCN(CC#Cc2nccc(N3CC4CCC(C3)N4c3cc(-c4ccccc4O)nnc3N)n2)C1 (centres unmarked)
50 to 500 nM

Would you kindly repeat that for C[C@H]1CCN(c2cc(-c3ccccc3O)nnc2N)CCN1c1ccnc(C#CCNC(=O)c2cc3ncccn3n2)n1 ?
50 to 500 nM

One more molecule: CC(C)OCC#Cc1cc(N2CCN(c3cc(-c4ccccc4O)nnc3N)CC[C@H]2C)ccn1
< 50 nM

How about this molecule: Nc1nnc(-c2ccccc2O)cc1N1CCCN(c2ccnc(C#CCn3ccn4nccc4c3=O)n2)CC1
< 50 nM

Item: Nc1nnc(-c2ccccc2O)cc1N1CCCN(c2ccnc(C#CCN3CCS(=O)(=O)CC3)n2)CC1
500 to 5000 nM

Likewise for CC(C)[C@@H]1COCCN1CC#Cc1nccc(N2CCN(c3cc(-c4ccccc4O)nnc3N)CC[C@H]2C)n1 ?
50 to 500 nM

Repeat with Nc1nnc(-c2ccccc2O)cc1N1CCCN(c2ccnc(C#CCN3C[C@@H]4C[C@H]3CO4)n2)CC1
50 to 500 nM

Then this molecule: C[C@@H]1CCN(c2cc(-c3ccccc3O)nnc2N)CCN1c1ccc(C(F)(F)F)c(C#CCN(C)C)n1
500 to 5000 nM

Thanks! And C[C@@H]1CCN(c2cc(-c3ccccc3O)nnc2N)CCN1c1ccnc(C#CCN2CC(F)(F)C2)n1 ?
50 to 500 nM

And for Nc1nnc(-c2ccccc2O)cc1N1CCN(c2ccnc(C#CCNC(=O)c3cccc4ccoc34)n2)CC1 ?
50 to 500 nM

====

# assay_system: SMARCA2-HiBiT HeLa cells (protein which is expressed from the SMARCA2 gene) (Homo sapiens, UniProt P51531)
# Construct: protein which is expressed from the SMARCA2 and SMARCA4 genes; host or cells: HeLa (SMARCA2-HiBiT engineered line)
# protocol_description: SMARCA2 degradation assay (HiBiT-fusion HeLa cell line, 24 h, luminescence)
# Format: cell-based
Overview of reported DC50 across a group of molecules:

Here's what some known entries look like.
molecule | DC50
CN(C)CC#Cc1nccc(N2C3CC2CN(c2cc(-c4ccccc4O)nnc2N)C3)n1 | < 50 nM
Nc1nnc(-c2ccccc2O)cc1N1CC2C1CCN2c1ccnc(C#CCNC(=O)c2cc3ncccn3n2)n1 (centres unmarked) | 500 to 5000 nM
Nc1nnc(-c2ccccc2O)cc1N1CCCN(c2ccnc(C#CCn3cccn3)n2)CC1 | 50 to 500 nM
CC1CN(c2ccnc(C#CCN)n2)CCN(c2cc(-c3ccccc3O)nnc2N)C1 (centres unmarked) | 500 to 5000 nM
Nc1nnc(-c2ccccc2O)cc1N1CCN(c2ccnc(C#CCNC(=O)c3cn4ccncc4n3)n2)CC1 | 50 to 500 nM
Cc1c(C(=O)NCC#Cc2nccc(N3CCN(c4cc(-c5ccccc5O)nnc4N)CC[C@H]3C)n2)nn(C)c1C | 50 to 500 nM

Given the entry CC(C#Cc1nccc(N2CCN(c3cc(-c4ccccc4O)nnc3N)CC[C@H]2C)n1)N(C)C (some centres unmarked) , report its measured DC50.
< 50 nM

Same again, this time with C[C@H]1CCN(c2cc(-c3ccccc3O)nnc2N)CCN1c1ccnc(C#CCNC(=O)c2cnc3ccccc3n2)n1
< 50 nM

For CN1CCCC1C#Cc1nccc(N2CCCN(c3cc(-c4ccccc4O)nnc3N)CC2)n1 (centres unmarked) then?
50 to 500 nM

Next: Nc1nnc(-c2ccccc2O)cc1N1CCCN(c2ccnc(C#CCN3CCC(Cc4ccccc4)CC3)n2)CC1
50 to 500 nM

Same question for NCC#Cc1nccc(N2C3CC2CN(c2cc(-c4ccccc4O)nnc2N)C3)n1 please.
500 to 5000 nM

Input C[C@@H]1CCN(c2cc(-c3ccccc3O)nnc2N)CCN1c1ccnc(C#C[C@H](O)C2CC2)n1
50 to 500 nM

Another: CC(C)(C)OC(=O)NC/C=C/c1nccc(N2CCCN(c3cc(-c4ccccc4O)nnc3N)CC2)n1
50 to 500 nM

====

# assay_system: SMARCA2-HiBiT HeLa cells (protein which is expressed from the SMARCA2 gene) (Homo sapiens, UniProt P51531)
# Construct: protein which is expressed from the SMARCA2 and SMARCA4 genes; host or cells: HeLa (SMARCA2-HiBiT engineered line)
# protocol_description: SMARCA2 degradation assay (HiBiT-fusion HeLa cell line, 24 h, luminescence)
# Assay type: cell-based
# study_conditions: @ 1 μM
observed_property: SMARCA2 % Degradation @ 1 μM

Examples with answers:
molecule | SMARCA2 % Degradation @ 1 μM
COC(=O)NCC#Cc1nccc(N2CCCN(c3cc(-c4ccccc4O)nnc3N)CC2)n1 [Compound P-353] | +++ (+++=>70%)
Nc1nnc(-c2ccccc2O)cc1N1C2CCC1CN(c1ccnc(C#CCCNC(=O)c3cc4ncccn4n3)n1)C2 [Compound P-22] | ++ (++=30-70%)
C[C@H]1CN(c2ccnc(C#CCN)n2)CCN1c1cc(-c2ccccc2O)nnc1N [Compound P-86] | + (+=<30%)
C[C@@H]1CCN(c2cc(-c3ccccc3O)nnc2N)CCN1c1nc(C#CCO)ncc1F [Compound P-207] | ++ (++=30-70%)
C[C@@H]1CN(c2ccnc(C#CCNC(=O)c3cc4ncccn4n3)n2)C[C@@H](C)N1c1cc(-c2ccccc2O)nnc1N [Compound P-82] | + (+=<30%)
CNCC#Cc1nccc(N2C3CCC2CN(c2cc(-c4ccccc4O)nnc2N)C3)n1 [Compound P-291] | ++ (++=30-70%)

Tell me the measured SMARCA2 % Degradation @ 1 μM of Nc1nnc(-c2ccccc2O)cc1N1CC2CCC(C1)N2c1ccnc(C#CCCNC(=O)c2cc3ncccn3n2)n1 [Compound P-96] , please.
++ (++=30-70%)

And what about the molecule Nc1nnc(-c2ccccc2O)cc1N1C2CC1CN(c1ccnc(C#CCNC(=O)c3cc4ncccn4n3)n1)C2 [Compound P-80] ?
+ (+=<30%)

Proceed to C[C@@H](O)C#Cc1nccc(N2CCCN(c3cc(-c4ccccc4O)nnc3N)CC2)n1 [Compound P-322]
++ (++=30-70%)

Try Nc1nnc(-c2ccccc2O)cc1N1C[C@H]2C[C@@H]1CN2c1ccnc(C#CCN2CCCCC2)n1 [Compound P-285] next.
++ (++=30-70%)

Here is the next molecule: Cc1nn2ccn(CC#Cc3nccc(N4C5CCC4CN(c4cc(-c6ccccc6O)nnc4N)C5)n3)c(=O)c2c1C [Compound P-103]
+++ (+++=>70%)
